# MEASURED_TARGET: GH (GH stock solution) (UniProt P01241)
# Sequence (P01241 27-217 limits assumed): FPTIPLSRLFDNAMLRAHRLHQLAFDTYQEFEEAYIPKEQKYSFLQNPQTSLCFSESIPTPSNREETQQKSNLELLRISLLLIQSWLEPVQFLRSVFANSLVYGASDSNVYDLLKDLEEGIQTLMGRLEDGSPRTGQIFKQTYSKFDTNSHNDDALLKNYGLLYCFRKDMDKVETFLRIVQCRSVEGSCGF
# TEST_SUMMARY: affinity chromatography, VHH-conjugated medium loaded with GH stock solution; medium in 0.5M NaOH 24h
QUANTITY_KIND: dynamic binding capacity at 10% breakthrough

Please review the entries below; each comes with its answer.
BINDER: M78 (Second round) (VHH, Entry already carries A57D; G134R; D102Y); tail DDDDK-SGGRGS-HHHHHH) VHH: QVQLVESGGGLAQAGGSLRLSCAVSGMPEFARAMGWFRQAPGKERELLAAIEGIGDTTYYADSVKGRFTISRDDAANTVLLQMNSLKPDDTAVYYCAAAFSVTIPTRARHWVYWGPGTLVTVSS
REPORTED_MEASUREMENT: 9.06

BINDER: M45 (First round) (VHH) VHH: QVQLVESGGGLAQAGGSLRLSCAVSGMPEFARAMGWFRQAPGKERELLAAIEGIGATTYYADSVKGRFTISRDDAANTVLLQMNSLKPDDTAVYYCAAAFSVTIPTRARHWVDWGPGTLVTVSS
REPORTED_MEASUREMENT: 4.29

BINDER: M74 (Second round) (VHH, Entry already carries A57D; G134R; R100eE); tail DDDDK-SGGRGS-HHHHHH) VHH: QVQLVESGGGLAQAGGSLRLSCAVSGMPEFARAMGWFRQAPGKERELLAAIEGIGDTTYYADSVKGRFTISRDDAANTVLLQMNSLKPDDTAVYYCAAAFSVTIPTRAEHWVDWGPGTLVTVSS
REPORTED_MEASUREMENT: 8.24

BINDER: M67 (Second round) (VHH, Entry already carries A15P; P105Q); tail DDDDK-SGGGGS-HHHHHH) VHH: QVQLVESGGGLAQPGGSLRLSCAVSGMPEFARAMGWFRQAPGKERELLAAIEGIGATTYYADSVKGRFTISRDDAANTVLLQMNSLKPDDTAVYYCAAAFSVTIPTRARHWVDWGQGTLVTVSS
REPORTED_MEASUREMENT: 4.23

I. WT (with tag), unmodified GH single-domain antibody molecule (VHH) VHH: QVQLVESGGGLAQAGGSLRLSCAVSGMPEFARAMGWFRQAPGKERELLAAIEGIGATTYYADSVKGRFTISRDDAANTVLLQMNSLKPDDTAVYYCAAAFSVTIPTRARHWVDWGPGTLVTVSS
II. M20 (First round) (VHH) VHH: QVQLVESGGGLAQAGGSLRLSCAVSGMPEFARAMGWFRQAPGKERELVAAIEGIGATTYYADSVKGRFTISRDDAANTVLLQMNSLKPDDTAVYYCAAAFSVTIPTRARHWVDWGPGTLVTVSS
Lab note: check whether I or II shows the higher recorded dynamic binding capacity at 10% breakthrough. Identify your selection by its label.
II
(II: 10.2, I: 3.39)
